assay-info: FRG1 promoter luciferase signal modulators, primary screen, FRG1 inhibition for FSHD, cell-based, C2C12 myotubes, firefly/Renilla luciferase, luminescence (AID 1084)
assay-setup: higher = more signal, called active from +8 up or from −8 down
measured-quantity: z-score

>>> data_value("Cc1ccc(S[C@]2(C(=O)NC(C)C)CC(=O)N(Cc3ccccc3)[C@@H]2c2ccc(CO)cc2)cc1")
-2.62
>>> data_value("C=CC[C@]1(C(=O)NCC(O)CO)N=C(c2ccc(OCCCO)cc2)O[C@H]1c1ccccc1CN=[N+]=[N-] (stereo partly drawn)")
-0.27
>>> data_value("O=C1N(Cc2ccccc2)c2ccccc2C[C@@]12N=C(c1ccc(OCCCO)cc1)O[C@H]2c1ccccc1")
-2.64
>>> data_value("COc1ccc(C(=O)Nc2ccc(CN3C(=O)[C@]4(O[C@H](CC(=O)N(CCO)Cc5ccccc5)[C@@H]([Si](C)(C)c5ccc(OC)cc5)[C@@H]4C)c4ccccc43)cc2)cc1")
-0.228
>>> data_value("C=C(CCCC)/C(=C/C[C@@H](OC(C)=O)c1ccc(OCCO)cc1)c1cc(C(=O)OC)ccc1OC")
2.07
>>> data_value("C=C(CCCC)C(=O)CC[C@@H](OC(C)=O)c1ccc(OCCO)cc1")
-0.0798
>>> data_value("COC(=O)[C@@]1(Cc2ccc(OC)cc2)[C@H]2c3cc(C(=O)N(C)C)n(Cc4c(CO)[nH]cc(C)c4=O)c3C[C@H]2CN1C(=O)c1ccccc1")
2.07
>>> data_value("CN(C)CCCC[C@@H]1NC(=O)[C@H]2C[C@@H](C(=O)NCCCCCCNC(=O)CS)[C@@H](c3cccc(OCCO)c3)N2C1=O")
0.47

----------
target-desc: Torsin-1A-interacting protein 1 (Homo sapiens) (UniProt Q5JTV8)
Sequence (Q5JTV8 whole entry, looked up): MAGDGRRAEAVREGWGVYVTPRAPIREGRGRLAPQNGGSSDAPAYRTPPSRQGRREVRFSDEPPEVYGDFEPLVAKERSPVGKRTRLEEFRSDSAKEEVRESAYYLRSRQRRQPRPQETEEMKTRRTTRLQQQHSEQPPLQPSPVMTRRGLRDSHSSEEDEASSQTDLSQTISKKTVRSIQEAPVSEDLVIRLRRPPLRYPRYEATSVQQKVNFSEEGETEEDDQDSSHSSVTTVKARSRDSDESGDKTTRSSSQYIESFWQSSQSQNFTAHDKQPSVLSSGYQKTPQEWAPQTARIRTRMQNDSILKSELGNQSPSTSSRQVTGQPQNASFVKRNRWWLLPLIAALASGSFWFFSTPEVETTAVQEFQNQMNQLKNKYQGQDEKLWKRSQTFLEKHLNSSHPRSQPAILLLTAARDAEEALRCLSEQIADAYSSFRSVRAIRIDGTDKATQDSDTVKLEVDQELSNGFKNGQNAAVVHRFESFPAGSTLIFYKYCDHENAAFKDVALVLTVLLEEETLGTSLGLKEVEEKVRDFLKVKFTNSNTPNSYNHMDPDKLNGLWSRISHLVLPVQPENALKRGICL
assay-info: LAP1 binders from COS7 cell lysate, primary screen, small-molecule microarray, 635/667 nm fluorescence (AID 1116)
assay-setup: COS7-hLAP1 lysate binding, 635 nm fluorescence, higher = more signal
Threshold check on composite z-score: at or above 0.3 gives met, strictly below gives not met.

>>> cat("O=C(NC1CC1)[C@@H]1c2ccccc2C(=O)N(C2CCCCC2)[C@H]1c1ccc(CO)cc1")
"met"
>>> cat("C=CCNC(=O)[C@@H]1[C@H]2C(=O)O[C@H](c3ccccc3)[C@H](c3ccccc3)N2[C@H](c2ccc(OCCO)cc2)[C@@]12C(=O)Nc1ccc(C#CCNC(N)=O)cc12")
"not met"
>>> cat("COC(=O)[C@@]1(Cc2ccccc2)[C@H]2c3cc(C(=O)N(C)C)n(CCF)c3C[C@H]2CN1C(=O)c1ccccc1")
"met"
>>> cat("COC(=O)C1(CC(C)C)C=C2C(=C(C)C(=O)C2C)CN1 (stereo not given)")
"met"
>>> cat("CCN1C(=O)C2CC(=O)C3C(CN(S(=O)(=O)c4ccc(C)cc4)C3c3ccc(C)cc3)C2C1=O (stereo not given)")
"met"
>>> cat("CCCCCCCCCCC(O)C1C=CC2C(=O)N(C)C(=O)C2N1Nc1ccccc1 (stereo not given)")
"met"
>>> cat("COC(=O)C(CC#Cc1ccc2c(c1)[C@]1(C(=O)N2)[C@H](C(=O)NC[C@H](O)c2ccccc2)[C@H]2C(=O)O[C@H](c3ccccc3)[C@H](c3ccccc3)N2[C@@H]1c1ccc(O)cc1)C(=O)OC")
"not met"
>>> cat("CC(C)(C)OC(=O)CC[C@@]1(C(N)=O)N=C(c2ccc(OCCCO)cc2)O[C@@H]1c1ccccc1CN=[N+]=[N-]")
"met"
>>> cat("C[C@H]1C2[C@H](Cc3ccccc3)NC(=O)[C@]23C(=O)N[C@@H](Cc2ccccc2)C(=O)N2CCC[C@H]2C(=O)NC/C=C/CC/C=C/C3[C@@H]2O[C@]12C (stereo not given in full)")
"not met"
>>> cat("COC(=O)[C@@]1(Cc2ccc(F)cc2)[C@H]2c3cc(C(=O)N(C)C)n(Cc4ccsc4Br)c3C[C@H]2CN1C(=O)c1ccccc1")
"met"
>>> cat("O=C/C=C/c1ccc(-c2ccccc2)cc1")
"not met"
>>> cat("[N-]=[N+]=NCc1ccccc1[C@H]1OC(c2ccc(OCCCO)cc2)=N[C@@]1(Cc1ccccc1N=[N+]=[N-])C(=O)N1CCOCC1")
"met"
>>> cat("[N-]=[N+]=Nc1ccccc1C[C@@]1(C(=O)NCC(O)CO)N=C(c2ccc(OCCCO)cc2)O[C@@H]1c1ccccc1N=[N+]=[N-] (stereo not given in full)")
"met"
>>> cat("COc1ccc([Si](C)(C)[C@H]2[C@H](CC(=O)N(CCO)Cc3ccccc3)O[C@@]3(C(=O)N(c4ccccc4)c4ccccc43)[C@@H]2C)cc1")
"not met"

----------
target-desc: Torsin-1A-interacting protein 2 (Homo sapiens) (UniProt Q8NFQ8)
Sequence (Q8NFQ8 whole entry, looked up): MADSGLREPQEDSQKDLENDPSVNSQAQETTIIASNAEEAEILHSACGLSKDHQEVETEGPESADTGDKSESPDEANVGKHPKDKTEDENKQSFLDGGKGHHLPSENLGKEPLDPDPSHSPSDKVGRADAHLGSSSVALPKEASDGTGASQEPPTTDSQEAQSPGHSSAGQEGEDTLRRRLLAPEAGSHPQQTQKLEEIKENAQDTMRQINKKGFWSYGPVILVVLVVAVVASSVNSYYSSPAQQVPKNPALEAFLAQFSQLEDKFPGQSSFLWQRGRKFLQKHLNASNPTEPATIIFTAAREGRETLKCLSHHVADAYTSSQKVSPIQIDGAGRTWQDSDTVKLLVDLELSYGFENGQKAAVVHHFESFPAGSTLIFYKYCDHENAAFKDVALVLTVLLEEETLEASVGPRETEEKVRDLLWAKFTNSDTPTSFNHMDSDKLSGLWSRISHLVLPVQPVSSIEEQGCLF
assay-info: LULL1 binders on small-molecule microarray, primary screen, cell lysate, human LULL1 lysate, 635/667 nm fluorescence (AID 1092);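 further: probe is lysate of COS7 cells overexpressing human LULL1; score merges per-feature 667 nm fluorescence with signal-to-noise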
assay-setup: hLULL1 lysate binding, 635 nm fluorescence, higher = more signal
Measured composite z-score by item
measured-quantity: composite z-score

>>> data_value("Cc1ccc(S[C@]2(C(=O)NCc3ccccc3)CC(=O)N(Cc3ccccc3C(F)(F)F)[C@@H]2c2ccc(CO)cc2I)cc1")
1.93
>>> data_value("CC(C)C[C@@H]1NC(=O)[C@@H]2C[C@H](C(=O)NCCCCCCNC(=O)CS)[C@H](c3ccc(O)cc3)N2C1=O")
2.93
>>> data_value("O=C1c2ccccc2[C@](Cc2ccccc2I)(C(=O)NCCN2CCOCC2)[C@H](c2ccc(CO)cc2)N1Cc1ccccc1C(F)(F)F")
2.95
>>> data_value("CC(C)(C)OC(=O)N1[C@@H](C=C(Br)Br)COC1(C)C")
0.546
>>> data_value("COc1ccc([Si](C)(C)[C@@H]2[C@@H](CC(=O)N(CCO)Cc3ccccc3)O[C@]3(C(=O)N(Cc4cccc(I)c4)c4ccccc43)[C@H]2C)cc1")
0.444
>>> data_value("NCCCCCCNC(=O)[C@@H]1C[C@@H]2C(=O)NCC(=O)N2[C@@H]1c1cccc(OCCO)c1")
2.11
>>> data_value("CC[C@@H](O[Si](C#C[Si](C(C)C)(C(C)C)C(C)C)(C(C)C)C(C)C)c1cn(Cc2cccc(Cl)c2)nn1")
-0.0557

----------
assay-info: osmotic lysis modulators in infected erythrocytes, primary screen, PSAC antagonist project, cell-based, P. falciparum Indochina, OD700, 3 h (AID 1156)
assay-setup: higher = more signal, called active from +8 up or from −8 down
z-score values by entry
measured-quantity: z-score

>>> data_value("CC(C)C(=C=CC[C@H](O)c1cccc(OCCO)c1)C[C@H](O)c1ccccn1")
1.96
>>> data_value("C=CCN1C(=O)[C@]2(O[C@H](CCO)[C@@H]([Si](C)(C)c3ccc(OC)cc3)[C@@H]2C)c2cc(N3C(=O)c4ccccc4Oc4ccccc43)ccc21")
-0.512
>>> data_value("C=C(CCCC)/C(=C/C[C@@H](OC(C)=O)c1ccc(OCCO)cc1)c1cc(C(=O)OC)ccc1OC")
1.86
>>> data_value("COCCOC(=O)N1C(=O)[C@@]2(c3cc(C#CCC(C(=O)OC)C(=O)OC)ccc31)[C@H](C(=O)N1CCc3cc(OC)c(OC)cc3C1)[C@H]1C(=O)O[C@H](c3ccccc3)[C@H](c3ccccc3)N1[C@@H]2c1ccccc1OCCO")
0.358
>>> data_value("CC(CO)N1C(=O)[C@@H]2[C@H]3C(=O)OCC=C[C@H]3OC23C=CCN(c2ccc4ccccc4c2)C(=O)[C@@H]13 (some centres undefined)")
0.162
>>> data_value("CC(C)C[C@@H]1NC(=O)[C@H]2C[C@@H](C(=O)O)[C@@H](c3cccc(OCCO)c3)N2C1=O")
-2.36
>>> data_value("C=C(CC1([C@@H](NP(=O)(c2ccccc2)c2ccccc2)[C@H]2C[C@@H]2CCCC)CC1)c1cccc(OC)c1")
1.36
>>> data_value("CC(C)Cc1ccc(CN2CC[C@@H](NC(=O)c3ccccc3)C2)cc1")
1.23
>>> data_value("[N-]=[N+]=NCc1ccccc1C[C@@]1(C(N)=O)N=C(c2ccc(OCCCO)cc2)O[C@@H]1c1ccccc1N=[N+]=[N-]")
1.81
>>> data_value("O=C(NC1CC1)[C@@H]1c2ccccc2C(=O)N(C2CCCCC2)[C@H]1c1ccc(CO)cc1")
0.973
>>> data_value("COc1ccc(CCNC(=O)[C@@H]2c3ccccc3C(=O)N(C(C)C)[C@H]2c2ccc(CO)cc2)cc1")
1.3
>>> data_value("CN(C)CCCCNC(=O)[C@H]1C[C@H]2C(=O)N[C@@H](CCCCN(C)C)C(=O)N2[C@H]1c1ccc(O)cc1")
0.589
>>> data_value("CC(=O)NCCCC[C@@H]1NC(=O)[C@H]2C[C@@H](C(=O)NCCCCCN)[C@@H](c3ccc(O)cc3)N2C1=O")
0.0814
>>> data_value("C=CCOC(=O)[C@@H]1[C@H]2C(=O)O[C@H](c3ccccc3)[C@H](c3ccccc3)N2[C@H](c2ccc(OCCOC(=O)[C@H]3C[C@H]4C(=O)N[C@@H](CCCCN(C)C)C(=O)N4[C@H]3c3cccc(OCCO)c3)cc2)[C@@]12C(=O)Nc1ccccc12")
-0.703
